- Tested on: MDA-MB-231 breast
- experiment-description: NCI-60 one-dose screen, 48 h
- setup-conditions: 10 µM unless noted
About 83,000 compounds went through this panel and 20% of them were active in at least one assay; those are over-represented in the sample as a whole. The source made the active and inactive calls. How the source made its calls: active means growth percent below 10; inactive means the rest.
In this exercise, the only acceptable responses are active, inactive

Solved cases below.
structure-smiles-string | class-assignment
c1ccc(CSC(c2ccccc2)c2ccccc2)cc1 | inactive
O=C(CCCCCNC1=CC(=O)c2ccccc2C1=O)NCCC[Te]c1ccccc1 | active
COC(=O)[C@@H](C)C[C@H](Cc1ccccc1)NC(=O)c1csc([C@@H](C[C@H](C(C)C)N(C)C(=O)[C@@H](NC(=O)[C@H]2CCCCN2C)C2CCCCC2)OC(C)=O)n1 | active

Query: Could you kindly confirm the outcome this assay logged for Cc1ccc(C(=O)NCCCOc2ccc(N3C(N)=NC(N)=NC3(C)C)cc2Cl)cc1S(=O)(=O)F ?
Reply: inactive

Query: Which result was noted for this molecule in the test: O=C(O)C(Cl)(Cl)C(F)(F)F
Reply: inactive
